All figures here come from ChEMBL document CHEMBL4346653.

- target_entity: Adenosine receptor A1 (Homo sapiens, UniProt P30542)
- Sequence (P30542 whole entry): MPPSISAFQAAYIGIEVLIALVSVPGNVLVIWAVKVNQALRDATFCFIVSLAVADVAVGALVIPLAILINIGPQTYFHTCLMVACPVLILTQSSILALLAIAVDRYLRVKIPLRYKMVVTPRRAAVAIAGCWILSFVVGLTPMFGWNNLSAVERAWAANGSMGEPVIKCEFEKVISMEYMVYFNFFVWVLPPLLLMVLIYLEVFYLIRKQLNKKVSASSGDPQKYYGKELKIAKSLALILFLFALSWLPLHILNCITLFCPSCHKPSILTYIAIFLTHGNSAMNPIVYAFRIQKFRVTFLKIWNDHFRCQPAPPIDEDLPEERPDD
- measurement_notes: Displacement of [3H]CCPA from recombinant human A1 adenosine receptor expressed in CHO cell membranes measured after 90 mins in presence of adenosine deaminase by liquid scintillation counting method
pKi: −log10 of the molar value.
recorded_metric: pKi

{"columns": ["molecule", "target_entity", "pKi"],
 "data": [
  ["CCCn1c(=O)[nH]c2nc(-c3ccc(S(=O)(=O)N4CCN(c5ccccc5)C(C)C4)cc3)[nH]c2c1=O (stereo not given)", "Adenosine receptor A1 (Homo sapiens, UniProt P30542)", "< 6.00"],
  ["CCCn1c(=O)[nH]c2nc(-c3ccc(S(=O)(=O)N4CCN(Cc5ccc(OCCOCCOC)cc5)CC4)cc3)[nH]c2c1=O", "Adenosine receptor A1 (Homo sapiens, UniProt P30542)", 6.00],
  ["CCCn1c(=O)[nH]c2nc(-c3ccc(S(=O)(=O)N4CCN(c5ccc(Br)cc5)CC4)cc3)[nH]c2c1=O", "Adenosine receptor A1 (Homo sapiens, UniProt P30542)", "< 6.00"]
]}

For every item in the list below, what is its measured pKi?
1. CCCn1c(=O)[nH]c2nc(-c3ccc(S(=O)(=O)N4CCN(Cc5ccc(C(=O)O)cc5)CC4)cc3)[nH]c2c1=O
2. CCCn1c(=O)[nH]c2nc(-c3ccc(S(=O)(=O)N4CCN(c5ccccc5Cl)CC4)cc3)[nH]c2c1=O

["< 6.00", "< 6.00"]
